target: p160_20-160/Prep1_45-155 binding (Homo sapiens, UniProt Q9BQG0); construct: pre-incubating the His6-tagged-p160_20-160 at 0.25μM with peptides; made in house; experiment: ELISA-like competition of p160_20-160/Prep1_45-155 binding; conditions: as restated in the discussion; read-out: IC50, potency in vitro as complex inhibitor
Sequence (Q9BQG0 20-160): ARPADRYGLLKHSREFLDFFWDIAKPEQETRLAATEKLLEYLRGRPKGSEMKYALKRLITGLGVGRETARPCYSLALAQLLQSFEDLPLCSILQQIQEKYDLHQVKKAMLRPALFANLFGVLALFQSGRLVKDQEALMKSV
Measured Quantity: IC50

get_value(item= Ac-KQAIYRHPLFPLLALLFEK-NH2 [Prep1(54-72)] , readout=IC50) returns ~200 nM

* * *

molecular target: p160_20-160/Prep1_45-155 binding (Homo sapiens); construct: pre-incubating the His6-tagged-p160_20-160 at 0.25μM with peptides; made in house; experiment: ELISA-like competition of p160_20-160/Prep1_45-155 binding; details: His6-p160_20-160 0.25μM pre-incubated with peptide 0.001-10μM; plate coated with Prep1_45-155 (0.10μM); anti-His HRP; average of three experiments; read-out: IC50, inhibition of p160_20-160/Prep1_45-155 binding
Measured Quantity: IC50 (nM)
Entry rule: numbers only, all in nM.

get_value(item= Ac-KQAIYRHPLFPLLALLFEK-NH2 [Prep1(54-72)] , readout=IC50) returns 200
